# System tested: Phosphodiesterase 4 (Homo sapiens, UniProt P27815+Q08499+Q07343+Q08493)
# Assay: Inhibition of PDE4 in human U937 cells at 1 uM after 30 mins by electrochemiluminescence based immunoassay
# Assay type: cell-based
# Test parameters: U-937
List of inhibition values.

Structure notation	inhibition, %
CCn1nc(C(=O)N(C)C)c2c(C)n(-c3cccc([N+](=O)[O-])c3)nc2c1=O	4
CCn1nc(-c2ccccc2)c(C#N)c1CCc1ccccc1C(=O)O	11
CCn1nc(-c2nnc(C)o2)c2c(C)n(-c3cccc([N+](=O)[O-])c3)nc2c1=O	48
CCn1nc(-c2ccccc2)c(C#N)c1/C=C/c1cccc2ccccc12	35
CCn1nc(-c2ccccc2)c(C#N)c1CCc1cccc2ccccc12	-3
